This collection of values is drawn from ChEMBL document CHEMBL4028802.

Species: Homo sapiens
protocol_notes: Liver toxicity in human assessed as induction of drug-induced liver injury by measuring verified drug-induced liver injury concern status
result_type: DILI_Concern

The cases that follow already have their DILI_Concern on record.
| compound | result_type | reported_result |
| --- | --- | --- |
| CCCCCN(C)CCC(O)(P(=O)(O)O)P(=O)(O)O [IBANDRONIC ACID] | DILI_Concern | No-Dili-Concern |
| CC12CC3CC(C)(C1)CC(N)(C3)C2 [MEMANTINE] | DILI_Concern | Less-Dili-Concern |
| C=C1/C(=C\C=C2/CCC[C@]3(C)[C@@H]([C@H](C)CCCC(C)(C)O)CC[C@@H]23)C[C@@H](O)C[C@@H]1O [CALCITRIOL] | DILI_Concern | No-Dili-Concern |
| N[C@@H](CS)C(=O)O [CYSTEINE] | DILI_Concern | Ambiguous-Dili-Concern |
| C=CCC1(C(C)C#CCC)C(=O)N=C(O)N(C)C1=O (stereo not drawn) [METHOHEXITAL] | DILI_Concern | Ambiguous-Dili-Concern |

Complete the entry with DILI_Concern for CO[C@@]1(NC(=O)C2SC(=C(C(N)=O)C(=O)O)S2)C(=O)N2C(C(=O)O)=C(CSc3nnnn3C)CS[C@@H]21 (stereo partly drawn) [CEFOTETAN]
Ambiguous-Dili-Concern

Look up and report measured DILI_Concern for this entry: Cl.NCCNCCNCCN
No-Dili-Concern

// Input: CC1=NN(c2ccc(C)c(C)c2)C(=O)/C1=N\Nc1cccc(-c2cccc(C(=O)O)c2)c1O.NCCO.NCCO [ELTROMBOPAG OLAMINE] . Output its DILI_Concern only.
Most-Dili-Concern

Quickly give me recorded DILI_Concern for NS(=O)(=O)Cc1noc2ccccc12 [ZONISAMIDE]
Less-Dili-Concern

* * *

Recorded DILI_severity_class for the following compounds
Organism: Homo sapiens
protocol_notes: Liver toxicity in human assessed as induction of drug-induced liver injury by measuring severity class index

Here is how some compounds turned out for DILI_severity_class.
| compound | result_type | reported_result |
| --- | --- | --- |
| NC(=O)N1c2ccccc2CC(=O)c2ccccc21 [OXCARBAZEPINE] | DILI_severity_class | 3 |
| C[C@]12CCC(=O)C=C1CC[C@@H]1[C@@H]2CC[C@@]2(C)[C@H]1CC[C@]2(C)O [METHYLTESTOSTERONE] | DILI_severity_class | 2 |
| CC(C)Cc1ccc(CC(=O)O)cc1 [IBUFENAC] | DILI_severity_class | 8 |
| CCc1nc(N)nc(N)c1-c1ccc(Cl)cc1 [PYRIMETHAMINE] | DILI_severity_class | 3 |
| CCCC1O[C@@H]2C[C@H]3[C@@H]4CCC5=CC(=O)C=C[C@]5(C)[C@H]4[C@@H](O)C[C@]3(C)[C@]2(C(=O)CO)O1 (stereo partly specified) [BUDESONIDE] | DILI_severity_class | 0 |

Consider the compound O=C(O)CN(CCN(CC(=O)O)CC(=O)O)CC(=O)O [EDETIC ACID] . State its measured DILI_severity_class.
3

Give the reported value of DILI_severity_class for this record: CC(C)c1nc(N(C)S(C)(=O)=O)nc(-c2ccc(F)cc2)c1/C=C/[C@@H](O)C[C@@H](O)CC(=O)O [ROSUVASTATIN]
3

Answer with the recorded DILI_severity_class for the compound listed here: CC[C@@H](c1cccc(O)c1)[C@@H](C)CN(C)C [TAPENTADOL]
0
